This collection of values is drawn from ChEMBL document CHEMBL4257522.

test system: Enterococcus faecium; assay: Potentiation of methicillin-induced antibacterial activity against Enterococcus faecium ATCC 700221 assessed as minimum modulatory concentration up to 32 uM measured after 16 hrs in presence of MIC/4 methicillin; format: functional; settings: ATCC 700221, 16 h, read-out: MEC
measured quantity: minimal effective concentration (µM)
Report the value in µM with no unit label.

Q: Fill blank: measured minimal effective concentration of the molecule O=C(O)c1cc(O)c(-c2ccccc2)nc1-c1ccccc1 is ____.
Ans: 1

Others:
Q: Quick one: minimal effective concentration of O=C(O)c1cc(-c2ccc(F)cc2F)ncc1O ?
Ans: 0.25

---

test system: Klebsiella pneumoniae; assay: Toxicity in Klebsiella pneumoniae ATCC 13883 up to 32 uM measured after 16 hrs; format: organism-based
measured quantity: Activity

Q: Return reported Activity; argument: O=C(O)c1cnc(-c2ccccc2)c(O)c1
Ans: Non-Toxic

Q: # get_value(readout='Activity', item= Cc1nc(-c2ccccc2)cc(C(=O)O)c1O )
Ans: Non-Toxic

Q: Give its Activity value. Item: COc1cccc(-c2cc(C(=O)O)c(O)cn2)c1
Ans: Non-Toxic

Q: Given the entry C[n+]1ccc(C(=O)[O-])c(O)c1Cc1ccccc1 , report its measured Activity.
Ans: Non-Toxic

---

test system: Staphylococcus aureus; test: Potentiation of ciprofloxacin-induced antibacterial activity against Staphylococcus aureus ATCC 33592 assessed as minimum modulatory concentration up to 32 uM measured after 16 hrs in presence of MIC/4 ciprofloxacin; assay type: functional; conditions: ATCC 33592, 16 h, read-out: MEC
measured quantity: minimal effective concentration

Examples from the recorded data:
Q: Which minimal effective concentration is reported for this compound? O=C(O)c1cnc2c(F)cc(F)cc2c1O
Ans: 16 µM

Q: Report minimal effective concentration for O=C(O)c1ccnc(-c2ccccc2)c1O please.
Ans: 16 µM

Q: Quick check: minimal effective concentration of Cc1nc(-c2ccccc2)c(O)cc1C(=O)O ?
Ans: 16 µM

Q: # query: minimal effective concentration of entry O=C(O)c1cc(-c2ccccc2)nc(-c2ccccc2)c1O
Ans: 16 µM

Please look at the following compound next.
Q: Query: minimal effective concentration; subject: O=C(O)c1ccnc(Cc2ccccc2)c1O
Ans: > 32 µM

---

tested on: Staphylococcus aureus; assay: Potentiation of erythromycin-induced antibacterial activity against Staphylococcus aureus ATCC 33592 assessed as minimum modulatory concentration up to 32 uM measured after 16 hrs in presence of MIC/4 erythromycin; type: functional; conditions: ATCC 33592, 16 h, read-out: MEC
Overview of reported minimal effective concentration across a group of compounds:
Report the figure in µM without appending any unit label.

Q: # minimal effective concentration lookup, item O=C(O)c1cc(O)cnc1-c1ccccc1
Ans: 4

Q: State the recorded minimal effective concentration for this entry: Cc1nc(-c2ccccc2)c(O)cc1C(=O)O
Ans: 4

Could you now consider this next compound?
Q: Which minimal effective concentration value belongs to O=C(O)c1cnc2c(F)cc(F)cc2c1O ?
Ans: 1

---

tested on: Staphylococcus aureus; test: Potentiation of erythromycin-induced antibacterial activity against Staphylococcus aureus ATCC 33592 assessed as minimum modulatory concentration up to 32 uM measured after 16 hrs in presence of MIC/4 erythromycin; assay type: functional; conditions: ATCC 33592, 16 h, read-out: MEC
Measured minimal effective concentration of individual entries
Numeric answer only, unit µM assumed.

Q: Fill in the blank: the reported minimal effective concentration of O=C(O)c1cnc(-c2ccccc2)c(O)c1 is ____.
Ans: 2

More entries:
Q: Find the recorded minimal effective concentration belonging to O=C(O)c1ccnc(-c2ccccc2)c1O and report it.
Ans: 0.25
